Origin of values: patent US8710233B2

# assay.system: VR1/TRPV1 receptor (Homo sapiens)
# Sequence (Q8NER1 whole entry): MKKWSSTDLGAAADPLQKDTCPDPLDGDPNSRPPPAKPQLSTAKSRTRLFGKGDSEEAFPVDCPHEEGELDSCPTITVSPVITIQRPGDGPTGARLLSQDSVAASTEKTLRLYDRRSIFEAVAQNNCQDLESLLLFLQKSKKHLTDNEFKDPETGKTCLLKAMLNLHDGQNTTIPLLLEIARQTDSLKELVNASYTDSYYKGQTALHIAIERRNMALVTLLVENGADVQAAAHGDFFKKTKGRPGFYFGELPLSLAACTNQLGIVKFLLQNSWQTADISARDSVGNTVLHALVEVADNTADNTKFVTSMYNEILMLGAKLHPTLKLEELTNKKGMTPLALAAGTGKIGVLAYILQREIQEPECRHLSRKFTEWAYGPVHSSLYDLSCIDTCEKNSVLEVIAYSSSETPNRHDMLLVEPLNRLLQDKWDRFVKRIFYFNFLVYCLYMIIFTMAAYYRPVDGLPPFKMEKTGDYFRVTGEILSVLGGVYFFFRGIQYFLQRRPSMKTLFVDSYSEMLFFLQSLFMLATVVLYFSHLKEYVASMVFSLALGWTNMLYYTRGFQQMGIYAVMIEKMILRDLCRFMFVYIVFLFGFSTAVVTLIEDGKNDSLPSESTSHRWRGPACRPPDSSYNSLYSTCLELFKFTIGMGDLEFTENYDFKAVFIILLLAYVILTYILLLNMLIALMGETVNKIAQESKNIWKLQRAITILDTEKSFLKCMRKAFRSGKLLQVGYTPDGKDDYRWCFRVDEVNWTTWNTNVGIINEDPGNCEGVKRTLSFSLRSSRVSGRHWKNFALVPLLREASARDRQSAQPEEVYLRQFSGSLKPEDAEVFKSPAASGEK
# experiment: IC50 (human) after pH stimulus
# Assay type: cell-based
# study.conditions: @ 1 μM; ne = no effect; read-out: inhibition in percent, IC50 (human) after pH stimulus
assay.readout: inhibition at 1 µM
Could you give the number and then its unit, please?

Enquiry: Notebook: pull reported inhibition at 1 µM for VR1/TRPV1 receptor (Homo sapiens), entry CC(C(=O)NCc1ccc(C(F)(F)F)nc1-c1ccc2c(c1)OCCO2)c1ccc(NS(C)(=O)=O)c(F)c1 (stereo not shown) [Example 265]
Return: 33%

Enquiry: Form: Entry = CC(C(=O)NCc1ccc(C(F)(F)F)nc1Oc1ccccc1)c1ccc(NS(C)(=O)=O)c(F)c1 (stereo not shown) [Example 198] | System = VR1/TRPV1 receptor (Homo sapiens) | inhibition at 1 µM = ____
Return: 31%

Enquiry: Param readout= inhibition at 1 µM; system= VR1/TRPV1 receptor (Homo sapiens); entry= Cc1cc(C(C)C(=O)NCc2ccc(C(F)(F)F)nc2N2CCN(c3ccccc3)CC2)ccc1NS(C)(=O)=O (stereo not shown) [Example 203] ; returns value.
Return: 24%

Enquiry: Recall the recorded inhibition at 1 µM for CC(C(=O)NCc1ccc(C(F)(F)F)nc1CCC(C)(C)C)c1ccc(NS(C)(=O)=O)c(F)c1 (stereo not shown) [Example 263] with VR1/TRPV1 receptor (Homo sapiens) and state it.
Return: 63%

Enquiry: Hi! What's the reported inhibition at 1 µM for CC(C(=O)NCc1ccc(C(F)(F)F)cc1-c1cccc(Cl)c1)c1ccc(NS(C)(=O)=O)c(F)c1 (stereo not shown) [Example 322] on VR1/TRPV1 receptor (Homo sapiens)?
Return: 54%

Enquiry: # value lookup — system VR1/TRPV1 receptor (Homo sapiens), readout inhibition at 1 µM, item COc1nc(C(C)(C)C)ccc1CNC(=O)C(C)c1ccc(NS(C)(=O)=O)c(F)c1 (stereo not shown) [Example 372]
Return: 52%

Enquiry: Param readout = inhibition at 1 µM; param system = VR1/TRPV1 receptor (Homo sapiens); param query = CC(C)COc1nc(C(C)(C)C)ccc1CNC(=O)C(C)c1ccc(NS(C)(=O)=O)c(F)c1 (stereo not shown) [Example 353] ; response: value
Return: 25%

---

# assay.system: vanilloid receptor 1 (VR1/TRPV1) of the rat species (Rattus norvegicus, UniProt O35433)
# Construct: The spinal column is removed from decapitated rats; from tissue; host or cells: primary cells dissociated from rat dorsal root ganglia
# Sequence (O35433 whole entry): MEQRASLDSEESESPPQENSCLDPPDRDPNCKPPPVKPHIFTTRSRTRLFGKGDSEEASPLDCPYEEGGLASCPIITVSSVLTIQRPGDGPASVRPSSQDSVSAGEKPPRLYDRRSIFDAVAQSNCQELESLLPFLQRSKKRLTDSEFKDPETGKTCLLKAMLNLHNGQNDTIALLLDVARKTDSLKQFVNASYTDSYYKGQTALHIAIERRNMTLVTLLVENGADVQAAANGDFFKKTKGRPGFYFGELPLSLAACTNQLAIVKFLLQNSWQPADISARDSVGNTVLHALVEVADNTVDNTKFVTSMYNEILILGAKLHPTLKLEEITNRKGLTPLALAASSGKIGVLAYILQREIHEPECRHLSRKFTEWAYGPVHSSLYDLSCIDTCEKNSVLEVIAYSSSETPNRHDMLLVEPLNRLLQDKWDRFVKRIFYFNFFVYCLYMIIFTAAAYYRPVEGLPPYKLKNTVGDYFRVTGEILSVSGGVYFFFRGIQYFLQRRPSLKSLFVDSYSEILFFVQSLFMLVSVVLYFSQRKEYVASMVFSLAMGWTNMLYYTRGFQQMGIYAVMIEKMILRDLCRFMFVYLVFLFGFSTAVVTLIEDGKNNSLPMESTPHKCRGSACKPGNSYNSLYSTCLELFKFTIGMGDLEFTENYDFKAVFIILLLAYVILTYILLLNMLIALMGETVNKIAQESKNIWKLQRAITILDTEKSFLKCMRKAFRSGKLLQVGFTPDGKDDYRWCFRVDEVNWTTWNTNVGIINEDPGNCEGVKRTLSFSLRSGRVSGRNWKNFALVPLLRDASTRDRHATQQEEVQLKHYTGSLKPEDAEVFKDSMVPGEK
# experiment: FLIPR Ca2+ influx assay on rat dorsal root ganglia cells (pharmacological method I)
# Format: cell-based
# study.conditions: table 4; capsaicin; read-out: Ki (rat) Cap.
# Protocol: I. Functional Investigation of the Vanilloid Receptor 1 (VR1/TRPV1 Receptor) The agonistic or antagonistic action of the substances to be investigated on the vanilloid receptor 1 (VR1/TRPV1) of the rat species may be determined by the following assay. […] The DRGs are in each case repeatedly suspended, drawn by means of a syringe through no. […] The resultant pellet is in each case resuspended in 250 μL of complete medium and the cell count determined. […]
assay.readout: Ki (nM)
Report as a plain number; the unit nM is understood.

Answered examples (5):
Enquiry: # get_value(readout= Ki, system= vanilloid receptor 1 (VR1/TRPV1) of the rat species (Rattus norvegicus, UniProt O35433)) for CC(C(=O)NCc1ccc(C(F)(F)F)nc1OCc1ccc(F)cc1)c1ccc(NS(C)(=O)=O)c(F)c1 (stereo not drawn)
Return: 1.2

Enquiry: Reported Ki for vanilloid receptor 1 (VR1/TRPV1) of the rat species (Rattus norvegicus, UniProt O35433), given CCCCN(CCCC)c1nc(C(F)(F)F)ccc1CNC(=O)C(C)c1ccc(NS(C)(=O)=O)c(F)c1 (stereo not drawn) ?
Return: 0.7

Enquiry: Lab note: need Ki with vanilloid receptor 1 (VR1/TRPV1) of the rat species (Rattus norvegicus, UniProt O35433) for entry CC1CCN(c2nc(C(F)(F)F)ccc2CCNC(=O)C(C)c2ccc(NS(C)(=O)=O)c(F)c2)CC1 (stereo not drawn) , please look it up.
Return: 48

Enquiry: API: value(readout= Ki, system= vanilloid receptor 1 (VR1/TRPV1) of the rat species (Rattus norvegicus, UniProt O35433), query= CC(C(=O)NCc1ccc(C(F)(F)F)nc1N1CCC(=O)CC1)c1ccc(NS(C)(=O)=O)c(F)c1 (stereo not drawn) )
Return: 348

Enquiry: // lookup Ki | system=vanilloid receptor 1 (VR1/TRPV1) of the rat species (Rattus norvegicus, UniProt O35433) | key= CCCCOc1cc(C(C)(C)C)ccc1CNC(=O)C(C)c1ccc(NS(C)(=O)=O)c(F)c1 (stereo not drawn)
Return: 0.6

---
Enquiry: API: value(readout=Ki, system=vanilloid receptor 1 (VR1/TRPV1) of the rat species (Rattus norvegicus, UniProt O35433)) for record CC(C(=O)NCc1ccc(C(C)(C)C)nc1N1CCCC1)c1ccc(NS(C)(=O)=O)c(F)c1 (stereo not drawn)
Return: 5.3

---

# assay.system: vanilloid receptor 1 (VR1/TRPV1) of the rat species (Rattus norvegicus, UniProt O35433)
# Construct: The spinal column is removed from decapitated rats; from tissue; host or cells: primary cells dissociated from rat dorsal root ganglia
# experiment: FLIPR Ca2+ influx assay on rat dorsal root ganglia cells (pharmacological method I)
# Type: cell-based
# study.conditions: @ 1 μM; ne = no effect
assay.readout: inhibition in percent, Ki (rat) Cap.

Enquiry: # query: inhibition in percent, Ki (rat) Cap. of entry CC(C(=O)NCc1ccc(C(F)(F)F)cc1[N+](=O)[O-])c1ccc(NS(C)(=O)=O)c(F)c1 (stereo not shown)
Return: ne @ 1 μM

Enquiry: For the compound shown here, CC(C(=O)NCc1ccc(C(F)(F)F)nc1N1CCC(O)CC1)c1ccc(NS(C)(=O)=O)c(F)c1 (stereo not shown) , give the reported inhibition in percent, Ki (rat) Cap..
Return: ne @ 1 μM

Enquiry: What inhibition in percent, Ki (rat) Cap. value was documented for this compound, CC(C(=O)NCc1ncc(C(F)(F)F)cc1N1CCCC1)c1ccc(NS(C)(=O)=O)c(F)c1 (stereo not shown) ?
Return: 19% @ 1 μM

Enquiry: If you can, please state the reported inhibition in percent, Ki (rat) Cap. value of CC(C(=O)NCc1ccc(C(F)(F)F)cc1N)c1ccc(NS(C)(=O)=O)c(F)c1 (stereo not shown) .
Return: ne @ 1 μM

---

# assay.system: vanilloid receptor 1 (VR1/TRPV1) of the rat species (Rattus norvegicus, UniProt O35433)
# Construct: The spinal column is removed from decapitated rats; from tissue; host or cells: primary cells dissociated from rat dorsal root ganglia
# experiment: FLIPR Ca2+ influx assay on rat dorsal root ganglia cells (pharmacological method I)
# Format: cell-based
# study.conditions: table 4; capsaicin; read-out: Ki (rat) Cap.
pKi: −log10 of the molar value.
# binarize pKi: threshold 9 inclusive, high side class 1, low side class 0

Enquiry: Textbook exercise: given the entry CC(C(=O)NCc1ccc(C(F)(F)F)nc1N1CCCC1)c1ccc(NS(C)(=O)=O)c(Br)c1 (stereo not drawn) , state whether its pKi is greater than or equal to 9.
Return: class 0

Enquiry: Has CC(C(=O)NCc1ccc(C(F)(F)F)nc1N1CCN(C2CCCCC2)CC1)c1ccc(NS(C)(=O)=O)c(F)c1 (stereo not drawn) a recorded pKi greater than or equal to 9?
Return: class 0

Enquiry: Is pKi at least 9? Consider CC(C(=O)NCc1ccc(C(F)(F)F)cc1N1CCN(c2ccccc2)CC1)c1ccc(NS(C)(=O)=O)c(F)c1 (stereo not drawn)
Return: class 1

Enquiry: Does CCCCOc1cc(C(F)(F)F)ccc1CNC(=O)C(C)c1ccc(NS(C)(=O)=O)c(F)c1 (stereo not drawn) have a reported pKi of at least 9?
Return: class 1

Enquiry: Is the recorded value of pKi equal to or greater than 9 for this compound? CC1CCN(c2nc(C(F)(F)F)ccc2CNC(=O)C(C)c2ccc(NS(=O)(=O)N(C)C)c(F)c2)CC1 (stereo not drawn)
Return: class 0

Enquiry: Would you say CC(C(=O)NCc1ccc(C(F)(F)F)nc1OCCc1ccccc1)c1ccc(NS(C)(=O)=O)c(F)c1 (stereo not drawn) shows pKi at minimum 9?
Return: class 0

Enquiry: Given CC(C(=O)NCc1ccc(C(F)(F)F)cc1OCc1ccccc1)c1ccc(NS(C)(=O)=O)c(F)c1 (stereo not drawn) , state whether its pKi is at least 9.
Return: class 1

Enquiry: Determine whether measured pKi meets or exceeds 9 for CC(C(=O)NCc1ccc(C(F)(F)F)nc1NCc1ccccc1)c1ccc(NS(C)(=O)=O)c(F)c1 (stereo not drawn)
Return: class 0

Others:
Enquiry: Determine whether measured pKi meets or exceeds 9 for CC1CCN(c2nc(-c3ccc(F)cc3)ccc2CNC(=O)C(C)c2ccc(NS(C)(=O)=O)c(F)c2)CC1 (stereo not drawn)
Return: class 0

Enquiry: Threshold query (pKi >= 9) on Cc1cccc(N2CCN(c3nc(C(F)(F)F)ccc3CNC(=O)C(C)c3ccc(NS(C)(=O)=O)c(F)c3)CC2)c1 (stereo not drawn)
Return: class 0
